# Assay Notes: Physical stability under accelerated aging conditions (AAC), HT-XRPD
# Settings: 40° C./75% RH for 2 days
Observed Property: Physical stability after exposure to AAC

Compound | Value Observed
CC1(C)[C@@H]2CC[C@@]1(CS(=O)(=O)O)C(=O)C2.CN1CCN(Cc2ccc(-c3cnc(N4CCOC(Cn5nnc6ncc(-c7cnn(C)c7)nc65)C4)nc3)cc2)CC1 (stereo not shown) | physically stable
CN1CCN(Cc2ccc(-c3cnc(N4CCOC(Cn5nnc6ncc(-c7cnn(C)c7)nc65)C4)nc3)cc2)CC1.CS(=O)(=O)O.CS(=O)(=O)O (stereo not shown) | physically stable
CN1CCN(Cc2ccc(-c3cnc(N4CCOC(Cn5nnc6ncc(-c7cnn(C)c7)nc65)C4)nc3)cc2)CC1.CS(=O)(=O)O (stereo not shown) | physically stable
